# Ki annotations
target: UniProtKB P11166; type: binding; conditions: Ki, 50 nM [3H]-CB, eqn 6, values in text or legends
# value in nM; strip the unit string

Request: Form field: reported Ki of C[C@H]1C/C=C/[C@H]2[C@@H]3O[C@]3(C)[C@@H](C)[C@H]3[C@H](Cc4ccccc4)NC(=O)[C@]32OC(=O)O/C=C/[C@@](C)(O)C1=O [CCE, Cytochalasin E]
Result: 100

Request: Name the reported Ki value associated with the compound C=C[C@@]1(C)CC(=O)[C@]2(O)[C@@]3(C)[C@@H](O)CCC(C)(C)[C@@H]3[C@H](O)[C@H](OC(C)=O)[C@@]2(C)O1 [FSK, forskolin]
Result: 3280

* * *

Target: GLUT1 (Homo sapiens, UniProt P11166)
Sequence (P11166 1-492): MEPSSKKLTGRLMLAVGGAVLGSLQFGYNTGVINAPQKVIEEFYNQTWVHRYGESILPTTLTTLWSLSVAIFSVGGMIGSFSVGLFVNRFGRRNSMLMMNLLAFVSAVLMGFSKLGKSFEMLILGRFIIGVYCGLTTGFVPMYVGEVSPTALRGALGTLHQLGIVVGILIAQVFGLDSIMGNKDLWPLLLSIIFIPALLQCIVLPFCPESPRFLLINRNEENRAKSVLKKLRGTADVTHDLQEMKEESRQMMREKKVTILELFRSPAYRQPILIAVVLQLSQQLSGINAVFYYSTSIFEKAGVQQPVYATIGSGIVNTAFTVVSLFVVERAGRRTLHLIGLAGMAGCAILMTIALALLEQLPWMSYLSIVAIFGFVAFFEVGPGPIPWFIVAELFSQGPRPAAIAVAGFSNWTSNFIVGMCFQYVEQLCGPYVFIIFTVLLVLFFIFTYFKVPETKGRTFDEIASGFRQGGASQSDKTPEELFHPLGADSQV
Format: binding
Details: 50 nM [3H]-CB, 4°C, eqn 6
Recorded γ (hetero-cooperativity parameter) for the following compounds
Enter a number only.

COMPOUND	TARGET ENTITY	γ (hetero-cooperativity parameter)
CC[C@@]1(C)CC(=O)[C@@]2(O)[C@]3(C)[C@H](O)CCC(C)(C)[C@H]3[C@@H](O)[C@@H](OC(C)=O)[C@]2(C)O1 [14.15DiHFSK, 14,15-dihydro-forskolin]	GLUT1 (Homo sapiens, UniProt P11166)	0.571
CC(=O)O[C@@H]1/C=C\[C@@](C)(O)C(=O)[C@@H](C)C/C=C\[C@H]2[C@H](O)C(C)=C(C)[C@H]3C(Cc4ccccc4)NC(=O)[C@]132 (some centres unmarked)	GLUT1 (Homo sapiens, UniProt P11166)	0.433
C=C[C@@]1(C)CC(=O)[C@]2(O)[C@@]3(C)[C@@H](O)CCC(C)(C)[C@@H]3[C@H](O)[C@H](O)[C@@]2(C)O1	GLUT1 (Homo sapiens, UniProt P11166)	0.450

Request: Tell me the measured γ (hetero-cooperativity parameter) of C=C[C@@]1(C)CC(=O)[C@]2(O)[C@@]3(C)[C@@H](OC(C)=O)CCC(C)(C)[C@@H]3[C@H](OC(C)=O)[C@H](OC(C)=O)[C@@]2(C)O1 , please.
Result: 0.489

Request: Which γ (hetero-cooperativity parameter) is listed for C=C[C@@]1(C)CC(=O)[C@]2(O)[C@@]3(C)CCCC(C)(C)[C@@H]3[C@H](O)[C@H](OC(C)=O)[C@@]2(C)O1 ?
Result: 0.438
